Each recorded value in this set is attributed to the RNAGym collection of RNA variant scans (doi:10.1126/science.aae0568).

Catalogue of variants with associated yeast fitness
B1: tRNA (parent)
chain: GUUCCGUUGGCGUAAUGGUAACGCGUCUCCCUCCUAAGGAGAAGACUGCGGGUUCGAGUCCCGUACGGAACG

- Variants of: B1
- test details: yeast fitness relative to wild type (ratio to wild type); higher = fitter; tRNA-Arg(CCU), competitive growth, 37 C, YPD
This sample holds only a part of the variants without activity.
Note: the reply should be a number with no unit written.

Recorded results for 5 variants are shown here.
A15U C31U A70G ... 0.629
C34U A36G C55G A57U G67A ... 0.568
C30A A42U C55U C66A ... 0.531
G44C G50C A57G A65C ... 0.561
G9C U19C G48A U64C ... 0.609

Query: Using the record for G9A C29U U59A , report its yeast fitness.
Result: 0.561

Query: Using the record for U2C A15U , report its yeast fitness.
Result: 0.653

Query: Using the record for U19C A40G G48A , report its yeast fitness.
Result: 0.718

Query: Using the record for A37G G52A C55G , report its yeast fitness.
Result: 0.516

Query: Using the record for U16C G39C , report its yeast fitness.
Result: 0.696

Query: Using the record for U3C C27U G50A , report its yeast fitness.
Result: 0.648

Query: Using the record for C4A C11A C33G A57C C61G , report its yeast fitness.
Result: 0.534

Query: Using the record for A21U C22U A42C A43U G44C A65C , report its yeast fitness.
Result: 0.663

Query: Using the record for U13A C27U , report its yeast fitness.
Result: 0.984

Query: Using the record for G9C G10C A36U G44A C46G , report its yeast fitness.
Result: 0.563

Query: Using the record for G6A G44A A69C , report its yeast fitness.
Result: 0.576
